Assay: Plasma pharmacokinetics of esomeprazole and esomeprazole sulfone in goats after IV and SC administration (HPLC, non-compartmental analysis)
Conditions: both, pygmy and pygmy-cross, plasma, sc, 2 mg/kg, C0/Cmax, Goat, 2 mg/kg SQ (Table 3 comparison)
value type: Cmax

1. COc1ccc2nc([S@@+]([O-])Cc3ncc(C)c(OC)c3C)[nH]c2c1 [Esomeprazole, esomeprazole]: 1040 ng/mL

---

Test: Plasma pharmacokinetics of esomeprazole and esomeprazole sulfone in goats after IV and SC administration (HPLC, non-compartmental analysis)
Settings: both, pygmy and pygmy-cross, plasma, iv, 1 mg/kg, C0, goats, 1 mg/kg IV single dose, geomean, n = 5
value type: C0 (ng/mL)

1. COc1ccc2nc([S@@+]([O-])Cc3ncc(C)c(OC)c3C)[nH]c2c1: 2320
